Experiment: In vivo microdialysis pharmacokinetics of LVFX without transporter inhibitors
Parameters: species or system rat
Details: rat, blood (microdialysate, unbound), iv, 50 mg/kg, blood; Group 2: 1.25% NaHCO3 solution + LVFX 50 mg/kg; mean ± SD, n=3
test.readout: MRT (h)
Your answer should be a plain number; it is taken to be in h.

Measured MRT of `C[C@H]1COc2c(N3CCN(C)CC3)c(F)cc3c(=O)c(C(=O)O)cn1c23` : 1.23

---

Target: Breast cancer resistance protein (BCRP) (Rattus norvegicus, UniProt Q80W57)
Construct: from tissue; host or cells: living rat (blood-brain barrier, choroid plexus)
Sequence (Q80W57 1-657): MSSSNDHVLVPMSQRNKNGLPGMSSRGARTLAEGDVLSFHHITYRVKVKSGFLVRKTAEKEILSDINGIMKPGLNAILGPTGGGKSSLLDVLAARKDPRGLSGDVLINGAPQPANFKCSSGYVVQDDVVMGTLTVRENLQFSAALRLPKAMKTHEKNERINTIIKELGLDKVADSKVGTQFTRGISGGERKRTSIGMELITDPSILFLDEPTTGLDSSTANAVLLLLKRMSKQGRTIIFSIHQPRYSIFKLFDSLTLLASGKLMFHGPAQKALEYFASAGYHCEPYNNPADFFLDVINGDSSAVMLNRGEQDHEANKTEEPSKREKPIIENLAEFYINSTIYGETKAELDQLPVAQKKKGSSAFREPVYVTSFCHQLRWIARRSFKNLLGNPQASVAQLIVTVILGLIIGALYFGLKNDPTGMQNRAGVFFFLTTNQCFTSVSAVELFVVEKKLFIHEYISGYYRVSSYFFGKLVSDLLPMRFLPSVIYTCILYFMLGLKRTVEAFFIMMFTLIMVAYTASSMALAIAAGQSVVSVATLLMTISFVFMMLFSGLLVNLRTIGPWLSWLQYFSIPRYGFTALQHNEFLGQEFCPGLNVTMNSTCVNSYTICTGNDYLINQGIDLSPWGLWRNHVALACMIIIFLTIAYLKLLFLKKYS
Assay: In vivo microdialysis pharmacokinetics of LVFX with BCRP inhibitor Ko143
Conditions: CSF (lateral ventricle microdialysate, unbound), intravenous, with Ko143 15 mg/kg i.p., CSF, Ko143 group, Ko143 15 mg/kg i.p. + LVFX 50 mg/kg, mean ± SD, N=5, read-out: AUC0–180 (converted)
test.readout: AUC(0-t) (ng·h/mL)
Your answer should be a plain number; it is taken to be in ng·h/mL.

Measured AUC(0-t) of C[C@H]1COc2c(N3CCN(C)CC3)c(F)cc3c(=O)c(C(=O)O)cn1c23 [LVFX, Levofloxacin] : 4650
